Biological target: hERG (Homo sapiens, UniProt Q12809, species not given)
Sequence (Q12809 whole entry): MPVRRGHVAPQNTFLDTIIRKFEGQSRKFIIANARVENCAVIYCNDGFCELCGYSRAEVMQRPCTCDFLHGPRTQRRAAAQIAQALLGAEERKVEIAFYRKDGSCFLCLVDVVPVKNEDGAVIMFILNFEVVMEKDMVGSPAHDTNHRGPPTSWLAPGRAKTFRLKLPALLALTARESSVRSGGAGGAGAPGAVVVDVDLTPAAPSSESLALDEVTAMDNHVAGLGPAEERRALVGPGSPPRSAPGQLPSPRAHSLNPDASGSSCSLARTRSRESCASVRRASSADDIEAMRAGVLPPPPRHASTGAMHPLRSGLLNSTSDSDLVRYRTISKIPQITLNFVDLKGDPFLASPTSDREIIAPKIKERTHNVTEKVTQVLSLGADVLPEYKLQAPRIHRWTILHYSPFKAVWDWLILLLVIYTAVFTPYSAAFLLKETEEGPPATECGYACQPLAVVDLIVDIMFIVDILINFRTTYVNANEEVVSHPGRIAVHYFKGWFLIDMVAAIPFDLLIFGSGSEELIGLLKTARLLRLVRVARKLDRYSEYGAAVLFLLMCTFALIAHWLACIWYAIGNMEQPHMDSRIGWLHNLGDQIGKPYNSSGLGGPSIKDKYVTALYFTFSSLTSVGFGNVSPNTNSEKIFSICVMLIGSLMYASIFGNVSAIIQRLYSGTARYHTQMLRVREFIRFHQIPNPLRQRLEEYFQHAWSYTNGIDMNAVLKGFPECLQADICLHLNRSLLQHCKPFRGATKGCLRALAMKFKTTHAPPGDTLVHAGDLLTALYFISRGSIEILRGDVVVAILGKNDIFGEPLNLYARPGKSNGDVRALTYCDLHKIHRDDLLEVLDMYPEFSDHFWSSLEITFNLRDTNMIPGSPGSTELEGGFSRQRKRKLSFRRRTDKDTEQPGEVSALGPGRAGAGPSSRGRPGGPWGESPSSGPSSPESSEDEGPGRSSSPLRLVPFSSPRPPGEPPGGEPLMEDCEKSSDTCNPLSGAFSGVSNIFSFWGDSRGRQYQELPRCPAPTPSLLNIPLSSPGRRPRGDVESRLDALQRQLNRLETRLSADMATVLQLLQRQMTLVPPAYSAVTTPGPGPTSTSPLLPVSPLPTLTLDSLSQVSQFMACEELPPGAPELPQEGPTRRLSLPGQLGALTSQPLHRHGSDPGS
Assay: in vitro
observed property: pIC50
Units for pIC50: none; it is -log10 of a concentration expressed in mol/L.

Query (compound): CO[C@H]1CCCn2c(-c3cc4c(c5c3CNC5=O)Nc3ccc(N5CCOCC5)cc3C4(C)C)cnc21 ; field requested: pIC50
5.29

====

Test: in vitro
Set-up: species or system CT26
Conditions: human, hepg2 cells
observed property: CC50 (µM)
Respond with the bare value in µM.

Can you look up the measured CC50 of CO[C@H]1CCCn2c(-c3cc4c(c5c3CNC5=O)Nc3ccc(N5CCOCC5)cc3C4(C)C)cnc21 for me?
3.29
